Tested on: NCI-H460 lung
Method Notes: NCI-60 one-dose screen, 48 h
Run Parameters: 10 µM unless noted
About 83,000 compounds went through this panel and 20% of them were active in at least one assay; those are over-represented in the sample as a whole. The source made the active and inactive calls. The calls were made as follows: active = growth percent below 10; inactive = the rest.
Give one outcome, nothing more. List: T for active, F for inactive

// outcome(item) with item = COc1cccc(-c2nn(-c3ccccc3)cc2-c2ccnc(-c3cccnc3)c2)c1
F

What is the recorded call for this molecule in the test? CCOC(=O)CC1CSC(N/N=C/c2ccc(O)cc2)=N1 (centres undefined)
F

Write down the call the test reported for this molecule. Item: O=S(=O)(c1ccc(NCSc2nc3ccccc3s2)cc1)c1ccc(NCSc2nc3ccccc3s2)cc1
F
